Numbers sourced from patent US20220402948A1.

system: A431; experiment: A431 cell proliferation assay (CellTiter Glo, 72 hours); format: cell-based; details: Homo sapiens, A-431, 72 h, cell proliferation, A431, 72 hours, Table 2; read-out: A431 IC50
IC50 values by entry
Lab book: enter the figure in nM, no units written.

Past entries and their recorded results:
>>> endpoint_result("C#Cc1cnc(-c2ccc(Nc3nc(Nc4cc(C)c(N5CCC(N6CCN(C)CC6)CC5)cc4OC)ncc3Br)c(P(C)(C)=O)c2)cn1")
4450
>>> endpoint_result("CCc1cc(Nc2ncc(Br)c(Nc3ccc(-c4ccccc4)cc3P(C)(C)=O)n2)c(OC)cc1N1CCC(N2CCN(C)CC2)CC1")
935

Consider the additional molecule presented here.
Field request: IC50 | item: CCc1cc(Nc2ncc(Br)c(Nc3ccc(-c4ncn(C)n4)cc3P(C)(C)=O)n2)c(OC)cc1N1CCC(N2CCN(C)CC2)CC1
1030

----------
Target: Ba/F3-EGFR wild-type cell line (Homo sapiens)
Sequence (P00533 whole entry, change not shown): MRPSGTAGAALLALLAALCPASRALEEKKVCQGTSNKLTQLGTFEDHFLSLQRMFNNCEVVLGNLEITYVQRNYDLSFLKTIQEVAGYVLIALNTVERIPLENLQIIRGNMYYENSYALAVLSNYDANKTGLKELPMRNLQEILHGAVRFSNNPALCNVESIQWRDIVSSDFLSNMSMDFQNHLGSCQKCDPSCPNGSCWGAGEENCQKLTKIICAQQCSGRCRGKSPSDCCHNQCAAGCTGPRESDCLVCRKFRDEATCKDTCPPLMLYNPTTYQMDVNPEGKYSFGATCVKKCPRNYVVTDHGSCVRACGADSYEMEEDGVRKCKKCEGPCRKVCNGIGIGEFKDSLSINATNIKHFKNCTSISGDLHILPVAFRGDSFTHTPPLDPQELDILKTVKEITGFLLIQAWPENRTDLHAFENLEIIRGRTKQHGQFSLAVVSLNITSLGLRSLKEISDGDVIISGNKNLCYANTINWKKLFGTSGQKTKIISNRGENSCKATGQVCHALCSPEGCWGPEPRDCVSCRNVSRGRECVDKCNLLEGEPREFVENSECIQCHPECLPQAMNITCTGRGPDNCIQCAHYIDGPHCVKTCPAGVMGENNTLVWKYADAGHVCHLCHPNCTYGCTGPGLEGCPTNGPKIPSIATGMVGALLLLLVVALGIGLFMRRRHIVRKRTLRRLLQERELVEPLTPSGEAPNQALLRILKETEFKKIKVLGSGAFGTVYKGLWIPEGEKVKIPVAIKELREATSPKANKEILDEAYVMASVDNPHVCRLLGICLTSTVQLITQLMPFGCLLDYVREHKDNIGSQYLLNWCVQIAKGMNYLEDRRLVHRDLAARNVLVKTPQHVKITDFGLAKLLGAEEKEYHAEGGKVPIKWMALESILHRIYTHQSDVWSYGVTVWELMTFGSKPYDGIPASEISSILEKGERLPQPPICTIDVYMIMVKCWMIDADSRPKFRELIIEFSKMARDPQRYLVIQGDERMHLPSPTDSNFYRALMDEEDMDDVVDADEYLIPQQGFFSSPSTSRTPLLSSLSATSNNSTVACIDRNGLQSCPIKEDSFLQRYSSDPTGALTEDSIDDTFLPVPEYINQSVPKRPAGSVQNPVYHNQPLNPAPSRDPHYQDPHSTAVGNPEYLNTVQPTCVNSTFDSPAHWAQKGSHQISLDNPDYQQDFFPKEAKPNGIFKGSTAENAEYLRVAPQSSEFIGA
Assay: Ba/F3-EGFR wild-type cell proliferation assay (CellTiter Glo, 72 hours)
Type: cell-based
Conditions: Table 2, read-out: EGFR WT IC50
Experimental: Cell line: Ba/F3 cells with EGFR Δ19del/T790M/C797S mutation gene stably overexpressed named Ba/F3-Δ119del/T90M/C797S, and A431 and Ba/F3-EGFR wild-type cell line. a) Centrifuge the growth cells in logarithmic phase at 1000 rpm for 5 minutes, resuspend the cells in culture medium, and then count the cells; […] c) Read luminous signal value with PerkinElmer reader, […] The data were analyzed by GraphPad Prism 6.0 software to obtain the fitting curve of compound activity. […]
reported endpoint: GI50 (nM)
Lab book: enter the figure in nM, no units written.

>>> endpoint_result("CCc1cc(Nc2ncc(Br)c(Nc3ccc(-c4cnn(C)c4)c(OC)c3P(C)(C)=O)n2)c(OC)cc1N1CCC(N2CCN(C)CC2)CC1")
147
>>> endpoint_result("CCc1cc(Nc2ncc(Br)c(Nc3ccc(-c4cnn(CC)n4)cc3P(C)(C)=O)n2)c(OC)cc1N1CCC(N2CCN(C)CC2)CC1")
459

Field request: GI50 | item: CCc1cc(Nc2ncc(Br)c(Nc3ccc(-c4cnc5c(ccn5C)c4)cc3P(C)(C)=O)n2)c(OC)cc1N1CCC(N2CCN(C)CC2)CC1
1070

Can you check CCOc1cc(Nc2ncc(Br)c(Nc3ccc(-c4ccc(C)cn4)cc3P(C)(C)=O)n2)c(C)cc1N1CCOCC1 next?
146

Can you check COc1cc(Nc2ncc(Br)c(Nc3ccc(-c4cnn(C)n4)c(F)c3P(C)(C)=O)n2)c(C)cc1N1CCOCC1 next?
220

Can you check CCc1cc(Nc2ncc(Br)c(Nc3ccc(-c4ccco4)cc3P(C)(C)=O)n2)c(OC)cc1N1CCC(N2CCN(C)CC2)CC1 next?
141

Can you check CCc1cc(Nc2ncc(Br)c(Nc3ccc(-c4ncc(F)cn4)cc3P(C)(C)=O)n2)c(OC)cc1N1CCC(N2CCN(C)CC2)CC1 next?
194

----------
biological target: Ba/F3 cells with EGFR Δ19del/T790M/C797S mutation gene stably overexpressed (Homo sapiens, UniProt P00533, T790M/C797S, cells depend on it, form not given); assay: Ba/F3-Δ19del/T790M/C797S cell proliferation assay (CellTiter Glo, 72 hours); assay type: cell-based; details: Table 2, read-out: EGFR Δ19del/T790M/C797S IC50
Sequence (P00533 with tags, fused parts or gaps DEL746-750/T790M/C797S, form open): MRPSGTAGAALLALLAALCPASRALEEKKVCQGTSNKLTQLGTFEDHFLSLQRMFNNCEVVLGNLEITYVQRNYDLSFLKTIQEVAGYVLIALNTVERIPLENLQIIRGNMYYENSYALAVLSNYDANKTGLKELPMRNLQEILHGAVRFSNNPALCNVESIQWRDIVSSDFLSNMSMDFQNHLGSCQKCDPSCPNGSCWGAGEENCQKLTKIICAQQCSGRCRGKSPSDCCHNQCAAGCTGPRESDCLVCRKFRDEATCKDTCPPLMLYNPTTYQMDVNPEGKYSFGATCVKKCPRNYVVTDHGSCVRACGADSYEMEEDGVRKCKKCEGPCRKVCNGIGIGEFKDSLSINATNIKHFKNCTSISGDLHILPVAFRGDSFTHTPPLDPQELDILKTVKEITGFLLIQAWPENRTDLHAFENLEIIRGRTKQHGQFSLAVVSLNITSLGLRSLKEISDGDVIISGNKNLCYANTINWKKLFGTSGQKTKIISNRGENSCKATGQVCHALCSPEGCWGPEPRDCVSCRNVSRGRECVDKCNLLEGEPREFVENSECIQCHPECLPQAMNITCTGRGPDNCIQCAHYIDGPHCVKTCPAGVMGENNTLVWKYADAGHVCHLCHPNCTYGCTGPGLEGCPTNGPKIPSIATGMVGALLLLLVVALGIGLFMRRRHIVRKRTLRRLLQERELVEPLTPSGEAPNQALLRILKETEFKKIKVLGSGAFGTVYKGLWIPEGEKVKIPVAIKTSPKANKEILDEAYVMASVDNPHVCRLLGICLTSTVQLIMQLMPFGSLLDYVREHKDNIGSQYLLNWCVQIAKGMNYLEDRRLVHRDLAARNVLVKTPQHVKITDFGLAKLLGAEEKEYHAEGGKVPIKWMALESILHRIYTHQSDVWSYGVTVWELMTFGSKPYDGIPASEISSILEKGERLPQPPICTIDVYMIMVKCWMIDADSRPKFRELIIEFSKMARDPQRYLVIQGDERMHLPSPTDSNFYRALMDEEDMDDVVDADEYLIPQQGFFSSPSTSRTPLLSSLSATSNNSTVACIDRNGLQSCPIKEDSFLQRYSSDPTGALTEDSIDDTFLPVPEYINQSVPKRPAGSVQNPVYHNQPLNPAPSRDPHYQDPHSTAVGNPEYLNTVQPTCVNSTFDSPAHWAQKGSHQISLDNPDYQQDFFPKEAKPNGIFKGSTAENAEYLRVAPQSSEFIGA
Exam item: assign yes to entries whose GI50 is below 0.02 µM and no to entries at or above 0.02 µM. Note that a value of exactly 0.02 µM receives no.

A selection of reference data follows.
>>> cat("CCc1cc(Nc2ncc(Cl)c(Nc3ccc(-c4cnc(C)nc4)cc3P(C)(C)=O)n2)c(OC)cc1N1CCC(N2CCN(C)CC2)CC1")
"no"
>>> cat("CCc1cc(Nc2ncc(Br)c(Nc3ccc(-c4cnn(C)n4)cc3P(C)(C)=O)n2)c(OC)cc1N1CCC(N2CCN(C)CC2)CC1")
"yes"
>>> cat("CCc1cc(Nc2ncc(Br)c(Nc3ccc(-c4ccc(F)cc4F)cc3P(C)(C)=O)n2)c(OC)cc1N1CCC(N2CCN(C)CC2)CC1")
"no"
>>> cat("C#Cc1ccc(-c2ccc(Nc3nc(Nc4cc(C)c(N5CCC(N6CCN(C)CC6)CC5)cc4OC)ncc3Br)c(P(C)(C)=O)c2)s1")
"yes"
>>> cat("CCc1cc(Nc2ncc(Br)c(Nc3ccc(-c4ncc(F)cn4)cc3P(C)(C)=O)n2)c(OC)cc1N1CCC(N2CCN(C)CC2)CC1")
"yes"

For the next question, use this compound.
Is the reported GI50 for CCc1cc(Nc2ncc(Br)c(Nc3ccc(-c4cnn(C)n4)cc3P(C)(C)=O)n2)c(OC)cc1N1CCC(N2CCOCC2)CC1 strictly below 0.02 µM?
yes
